- measurement-target: T. gondii CDPK1 (tgCDPK1) (Toxoplasma gondii, UniProt Q9BJF5)
- Sequence (Q9BJF5 1-507): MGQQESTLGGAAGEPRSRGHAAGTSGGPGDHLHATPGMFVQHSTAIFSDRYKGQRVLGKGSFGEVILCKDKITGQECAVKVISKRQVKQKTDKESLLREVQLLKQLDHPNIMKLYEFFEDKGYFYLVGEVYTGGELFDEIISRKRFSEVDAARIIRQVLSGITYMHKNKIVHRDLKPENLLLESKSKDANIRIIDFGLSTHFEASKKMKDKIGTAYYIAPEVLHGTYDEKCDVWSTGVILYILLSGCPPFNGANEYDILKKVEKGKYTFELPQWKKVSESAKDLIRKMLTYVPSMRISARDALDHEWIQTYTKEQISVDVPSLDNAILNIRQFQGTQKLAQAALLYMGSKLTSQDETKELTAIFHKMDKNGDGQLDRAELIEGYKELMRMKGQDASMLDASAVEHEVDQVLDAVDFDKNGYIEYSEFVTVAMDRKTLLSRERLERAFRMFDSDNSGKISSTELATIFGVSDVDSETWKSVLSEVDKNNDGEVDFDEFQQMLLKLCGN
- method-summary: biochemical
- measurement-context: inhibition of T. gondii CDPK1; at least three independent replicates; read-out: tgCDPK1 IC50
measured-attribute: IC50 (nM)
Entry rule: numbers only, all in nM.

Exercise: Consider the molecule COc1ccnc(Oc2nn([C@H]3C[C@H](F)C3)c3ncnc(N)c23)c1 [Compound 162] and give its recorded IC50.
Key: 17.4

Exercise: Dear colleague, please send me the reported IC50 for Nc1ncnc2c1c(Cc1cccc(F)c1)nn2[C@H]1C[C@@H](O)C1 when you can.
Key: 28.4

Exercise: Supply reported IC50 belonging to this molecule: CC(C)(C)OC(=O)N1CCC(Cn2nc(Oc3cc(Cl)ccn3)c3c(N)ncnc32)C(F)(F)C1 (centres unmarked)
Key: 31.2

Exercise: Give a short answer stating reported IC50 for CC(C)(C)n1nc(Cc2cccc(C#N)c2)c2c(N)ncnc21 .
Key: 13.4

Exercise: Could you please provide reported IC50 for Nc1ncnc2c1c(Oc1cc(Cl)ccn1)nn2C1CCCCC1 ? Thanks!
Key: 4.6
